experiment: Cytotoxicity against human BC1 cells; format: functional; conditions: read-out: ED50 (the source's name)
Some compounds, each annotated with its measured EC50.
Just the number in µg/mL, nothing appended.

>>> print(df.to_string())
                                   compound  endpoint_label  units_text  number
0  COc1cc(-c2c3c(c(O)c4cc5c(cc24)OCO5)COC3=O)cc(OC)c1OC [DEHYDROPODOPHYLLOTOXIN]            EC50       µg/mL    15.2
1  COc1cc(-c2c3c(cc4c(OC)c5c(cc24)OCO5)COC3=O)cc(OC)c1OC            EC50       µg/mL     2.9

// query State the recorded EC50 for this entry: COc1cc([C@@H]2c3cc4c(cc3C[C@@H]3COC(=O)[C@H]32)OCO4)cc(OC)c1OC [ISODEOXYPODOPHYLLOTOXIN]
// result 17.5

---

experiment: Antimitotic activity in rat ASK cells assessed as reversal of astrocyte formation at 0.032 ug/mL; format: functional
Endpoint label: Activity (%)
# value in %; strip the unit string

Compound	Units text	Activity
COc1cc(-c2c3c(cc4c(OC)c5c(cc24)OCO5)COC3=O)cc(OC)c1OC	%	0

// query Field request: Activity | item: COc1cc2cc(c1Cl)N(C)C(=O)C[C@H](OC(=O)[C@H](C)N(C)C(C)=O)[C@]1(C)O[C@H]1[C@H](C)[C@@H]1C[C@@](O)(NC(=O)O1)[C@H](OC)/C=C/C=C(\C)C2 [MAYTANSINE]
// result 100

// query Find the recorded Activity belonging to CC[C@]1(O)C[C@H]2CN(CCc3c([nH]c4ccccc34)[C@@](C(=O)OC)(c3cc4c(cc3OC)N(C=O)[C@H]3[C@@](O)(C(=O)OC)[C@H](OC(C)=O)[C@]5(CC)C=CCN6CC[C@]43[C@@H]65)C2)C1 [VINCRISTINE] and report it.
// result 0

---

assay: Antimitotic activity in rat ASK cells assessed as reversal of astrocyte formation at 0.8 ug/mL; format: functional
Listed here are molecules together with their documented Activity.
Answer with the number, then the unit.

Consider the reported Activity for these molecules:
Molecule	Activity
COc1cc(-c2c3c(cc4c(OC)c5c(cc24)OCO5)COC3=O)cc(OC)c1OC	0%
CC[C@]1(O)C[C@@H]2CN(CCc3c([nH]c4ccccc34)[C@@](C(=O)OC)(c3cc4c(cc3OC)N(C)[C@H]3[C@@](O)(C(=O)OC)[C@H](OC(C)=O)[C@]5(CC)C=CCN6CC[C@]43[C@@H]65)C2)C1 [VINBLASTINE]	100%
COc1cc(C[C@H]2C(=O)OC[C@@H]2Cc2ccc3c(c2)OCO3)cc(OC)c1OC	100%

Continue with the molecule presented below.
// query Which measured Activity value corresponds to COc1cc(-c2c3c(c(O)c4c(OC)c5c(cc24)OCO5)COC3=O)cc(OC)c1OC ?
// result 0%

---

system: P388; experiment: Cytotoxicity in mouse P388 cells; type: functional; details: read-out: ED50 (the source's name)
The reader will find reported EC50 values listed item by item below.
Please give the number followed by its unit.

>>> print(df.to_string())
                               smiles_entry       result
0  COc1cc([C@@H]2c3cc4c(cc3C[C@H]3COC(=O)[C@@H]32)OCO4)cc(OC)c1O  0.005 µg/mL
1  COc1cc([C@@H]2c3cc4c(cc3C[C@H]3COC(=O)[C@H]32)OCO4)cc(OC)c1OC    0.1 µg/mL
2  COc1cc([C@@H]2c3cc4c(cc3[C@H](O)[C@H]3COC(=O)[C@H]23)OCO4)cc(OC)c1OC  0.003 µg/mL
3  COc1cc(C[C@H]2C(=O)OC[C@@H]2Cc2ccc3c(c2)OCO3)cc(OC)c1OC    0.4 µg/mL
4  COc1cc([C@@H]2c3cc4c(cc3C[C@H]3COC(=O)[C@@H]32)OCO4)cc(OC)c1OC  0.002 µg/mL

// query Any idea what its EC50 is? The compound is COc1cc(-c2c3c(c(O)c4c(OC)c5c(cc24)OCO5)COC3=O)cc(OC)c1OC
// result 4 µg/mL
